FYI, the data here is from the supplement of paper PMC8728848.

target: GlcNAc(b1-4)GlcNAc; assay: glycan array binding signal (z-score within array); higher = stronger binding; conditions: glycan notation: IUPAC condensed, linker removed
Shown is part of a subset that was picked to be rich in the strongest signals.
glycan array binding signal (z-score) by entry:
Response field accepts a number only; no unit should be typed.

>>> observed_result("MIC4-A5 (Toxoplasma gondii), Q9XZH7 (protein) SPDFHDEVECVHTGNIGSKAQTIGEVKRASSLSECRARCQAEKECSHYTYNVKSGLCYPKRGKPQFYKYLGDMTGSRTCDTS")
-0.323
>>> observed_result("Als3-2 (Candida albicans) (protein) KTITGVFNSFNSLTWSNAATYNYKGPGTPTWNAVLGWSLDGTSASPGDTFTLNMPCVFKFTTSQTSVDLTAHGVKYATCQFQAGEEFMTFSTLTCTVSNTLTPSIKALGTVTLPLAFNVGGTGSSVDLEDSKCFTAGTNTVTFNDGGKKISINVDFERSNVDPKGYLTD")
0.531

Next binder, glycan array binding signal (z-score) to be filled in.
Consider the binder shown here: cupB6 (Pseudomonas aeruginosa), Q02SP7 (protein) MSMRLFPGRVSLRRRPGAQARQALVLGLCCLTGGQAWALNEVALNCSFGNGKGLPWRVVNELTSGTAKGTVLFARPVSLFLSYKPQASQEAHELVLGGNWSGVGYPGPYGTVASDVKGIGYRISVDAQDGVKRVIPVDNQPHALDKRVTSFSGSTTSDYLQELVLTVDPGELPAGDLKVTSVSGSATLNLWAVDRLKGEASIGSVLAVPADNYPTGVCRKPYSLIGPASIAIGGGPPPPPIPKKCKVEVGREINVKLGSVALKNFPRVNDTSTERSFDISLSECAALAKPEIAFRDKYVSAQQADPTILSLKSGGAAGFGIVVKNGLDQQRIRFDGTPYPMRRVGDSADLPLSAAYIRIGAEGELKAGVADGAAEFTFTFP What is its recorded glycan array binding signal (z-score)?
-0.037
